experiment: in vitro; details: rat, liver microsomes
Description: Intrinsic clearance in rat liver microsomes assessed per mg protein in presence of NADPH by LC-MS/MS analysis
Measurement Kind: microsomal CLint (µL/min/mg)
Answer in µL/min/mg, number only, no unit symbol.

N#Cc1c(N)ncnc1N1CCC[C@H]1c1nc2cccc(F)c2c(=O)n1C1CCCC1 : 91.7

Now, please, on to the next compound.
Kindly indicate its recorded microsomal CLint. Item: N#Cc1c(N)ncnc1N1CCC[C@H]1c1nc2cccc(F)c2c(=O)n1Cc1ccccc1 865

====

assay: in vitro; details: rat, liver microsomes
Description: Metabolic stability in rat liver microsomes assessed as compound remaining after 60 mins in presence of NADPH by LC-MS/MS analysis
Measurement Kind: remaining at 1 h (%)
Answer in %, number only, no unit symbol.

N#Cc1c(N)ncnc1N1CCC[C@H]1c1nc2cccc(F)c2c(=O)n1C1CCCC1 : 6.2

Now, please, on to the next molecule.
Kindly indicate its recorded remaining at 1 h. Item: N#Cc1c(N)ncnc1N1CCC[C@H]1c1nc2cccc(F)c2c(=O)n1Cc1ccccc1 0.1
